Each recorded value in this set is attributed to patent US20250197357A1.

Target: PPARG/RXRA LBD heterodimer (Homo sapiens, UniProt P37231)
Construct: 2 nM WT PPARG LBD (e. coli expressed, His-TEV-Q203-Y477); fused on or other part: N-terminal His tag with TEV site on the PPARG LBD
Sequence (P37231 231-505 limits assumed): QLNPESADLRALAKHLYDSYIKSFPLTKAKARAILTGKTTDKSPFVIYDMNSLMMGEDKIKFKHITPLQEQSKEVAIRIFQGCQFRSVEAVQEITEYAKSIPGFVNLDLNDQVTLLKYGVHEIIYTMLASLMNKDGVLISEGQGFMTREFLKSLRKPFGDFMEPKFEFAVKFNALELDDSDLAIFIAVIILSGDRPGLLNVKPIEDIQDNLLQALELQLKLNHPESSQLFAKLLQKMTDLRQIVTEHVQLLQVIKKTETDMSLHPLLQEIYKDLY
Sequence (O75376 2251-2273 limits assumed, further chain): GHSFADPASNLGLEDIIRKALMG
Assay: PPARγ-NCOR1 recruitment assay (TR-FRET)
Assay type: binding
Conditions: NCOR1 ID2 peptide, 80 nM Rosiglitazone, 3 hours, read-out: PPARG - NCOR recruitment assay EC50
Parameter: EC50. Scope: all listed entries.

CN1Cc2ccc(-c3c(F)cc(NC(=O)c4cc(C#N)ccc4S(C)(=O)=O)cc3F)cc2C1=O ... 10 to 100 nM

Qu. Could you tell me which EC50 is on file for Cn1cc(-c2c(F)cc(NC(=O)c3cc(C#N)ccc3SC(F)(F)F)cc2F)cn1 ?
Ans. 100 to 1000 nM

Qu. Tell me the measured EC50 of CS(=O)(=O)c1ccc(C#N)cc1C(=O)Nc1cc(F)c(-c2ccc(C(F)F)nc2)c(F)c1 , please.
Ans. 100 to 1000 nM

Qu. // query EC50 value for entry Cn1cc(-c2c(F)cc(NC(=O)c3cc(C#N)ccc3S(C)(=O)=O)cc2F)cn1
Ans. 100 to 1000 nM

Qu. Dear colleague, I am looking for the recorded EC50 of the following compound: CS(=O)(=O)c1ccc(C#N)cc1C(=O)Nc1ccc(C#N)c(F)c1
Ans. 1000 to 10000 nM

Qu. So what's the measured EC50 for this one? N#Cc1ccc(S(=O)(=O)CC(F)(F)F)c(C(=O)Nc2cc(F)cc(F)c2)c1
Ans. 1000 to 10000 nM

Qu. Need EC50, item CS(=O)(=O)c1ccc(C#N)cc1C(=O)Nc1ccc2ccncc2c1
Ans. > 10000 nM

Qu. State the recorded EC50 for this entry: CS(=O)(=O)c1ccc(C#N)cc1C(=O)Nc1ccnc(C(F)(F)F)c1
Ans. 1000 to 10000 nM

Qu. Look at this compound and give its reported EC50. CS(=O)(=O)c1ccc(C#N)cc1C(=O)Nc1ccc(F)c(C#N)c1
Ans. 1000 to 10000 nM
